Measured log10 IC50 values are reported for all entries that follow.
Biological target: Ca^2 + channels (Rattus norvegicus, UniProt P22002)
Construct: rat cardiac microsomes (source of Ca^2 + channels)
Sequence (P22002 whole entry, other chains not shown): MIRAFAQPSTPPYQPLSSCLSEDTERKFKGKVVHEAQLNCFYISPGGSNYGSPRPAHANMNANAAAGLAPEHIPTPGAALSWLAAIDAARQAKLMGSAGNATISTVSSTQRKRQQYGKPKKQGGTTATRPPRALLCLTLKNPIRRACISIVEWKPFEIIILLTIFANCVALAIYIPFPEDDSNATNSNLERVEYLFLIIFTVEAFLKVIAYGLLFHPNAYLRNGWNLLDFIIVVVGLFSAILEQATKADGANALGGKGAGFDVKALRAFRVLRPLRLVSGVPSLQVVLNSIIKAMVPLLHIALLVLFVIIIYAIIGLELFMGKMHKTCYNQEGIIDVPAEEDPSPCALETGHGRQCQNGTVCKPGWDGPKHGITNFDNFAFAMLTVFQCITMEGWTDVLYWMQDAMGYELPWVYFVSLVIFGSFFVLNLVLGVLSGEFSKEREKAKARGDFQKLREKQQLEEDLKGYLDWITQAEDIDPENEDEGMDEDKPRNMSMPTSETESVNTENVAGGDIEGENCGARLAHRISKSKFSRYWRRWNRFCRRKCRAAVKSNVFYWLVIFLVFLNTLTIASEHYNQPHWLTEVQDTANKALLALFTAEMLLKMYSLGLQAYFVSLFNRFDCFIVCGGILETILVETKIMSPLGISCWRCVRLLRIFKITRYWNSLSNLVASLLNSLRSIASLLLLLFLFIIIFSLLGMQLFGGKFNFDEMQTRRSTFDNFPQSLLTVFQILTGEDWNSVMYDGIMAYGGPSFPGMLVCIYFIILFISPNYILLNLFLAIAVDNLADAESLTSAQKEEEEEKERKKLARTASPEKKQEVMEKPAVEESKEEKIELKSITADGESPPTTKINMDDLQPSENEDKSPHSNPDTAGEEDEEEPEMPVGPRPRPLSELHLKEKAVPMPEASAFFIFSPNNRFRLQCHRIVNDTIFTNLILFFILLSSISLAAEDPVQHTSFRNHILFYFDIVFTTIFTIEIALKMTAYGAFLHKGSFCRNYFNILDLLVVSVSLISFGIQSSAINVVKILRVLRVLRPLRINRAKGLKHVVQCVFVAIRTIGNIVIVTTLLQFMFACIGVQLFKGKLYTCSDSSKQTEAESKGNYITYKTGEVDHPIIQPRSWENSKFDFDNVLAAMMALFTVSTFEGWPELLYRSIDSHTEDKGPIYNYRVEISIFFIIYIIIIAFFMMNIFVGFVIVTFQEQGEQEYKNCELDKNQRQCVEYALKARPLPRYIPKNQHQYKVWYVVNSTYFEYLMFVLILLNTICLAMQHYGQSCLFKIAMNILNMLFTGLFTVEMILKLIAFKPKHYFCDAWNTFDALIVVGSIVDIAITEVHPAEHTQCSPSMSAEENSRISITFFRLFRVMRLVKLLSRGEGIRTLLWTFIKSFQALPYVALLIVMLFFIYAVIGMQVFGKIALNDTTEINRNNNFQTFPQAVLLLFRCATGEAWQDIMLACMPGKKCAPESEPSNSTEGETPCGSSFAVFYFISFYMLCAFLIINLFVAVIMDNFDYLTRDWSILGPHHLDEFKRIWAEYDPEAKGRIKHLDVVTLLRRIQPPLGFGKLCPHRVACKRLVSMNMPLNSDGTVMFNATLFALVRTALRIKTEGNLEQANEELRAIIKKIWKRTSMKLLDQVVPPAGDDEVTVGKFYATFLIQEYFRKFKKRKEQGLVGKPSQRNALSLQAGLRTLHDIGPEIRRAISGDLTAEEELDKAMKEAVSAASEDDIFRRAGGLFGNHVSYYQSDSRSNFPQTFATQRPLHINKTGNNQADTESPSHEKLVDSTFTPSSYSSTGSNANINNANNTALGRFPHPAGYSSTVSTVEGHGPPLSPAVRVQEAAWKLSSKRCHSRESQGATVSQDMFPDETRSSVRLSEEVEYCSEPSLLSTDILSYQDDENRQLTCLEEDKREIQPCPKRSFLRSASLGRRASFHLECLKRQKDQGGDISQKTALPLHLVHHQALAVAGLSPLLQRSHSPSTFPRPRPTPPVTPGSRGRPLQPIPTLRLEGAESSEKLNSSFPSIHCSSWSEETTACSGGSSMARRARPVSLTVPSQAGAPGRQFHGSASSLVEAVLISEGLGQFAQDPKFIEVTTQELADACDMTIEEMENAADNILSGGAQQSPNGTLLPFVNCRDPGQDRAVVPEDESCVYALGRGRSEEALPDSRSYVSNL
Sequence (P54290 25-944 partner limits assumed, other chains not shown): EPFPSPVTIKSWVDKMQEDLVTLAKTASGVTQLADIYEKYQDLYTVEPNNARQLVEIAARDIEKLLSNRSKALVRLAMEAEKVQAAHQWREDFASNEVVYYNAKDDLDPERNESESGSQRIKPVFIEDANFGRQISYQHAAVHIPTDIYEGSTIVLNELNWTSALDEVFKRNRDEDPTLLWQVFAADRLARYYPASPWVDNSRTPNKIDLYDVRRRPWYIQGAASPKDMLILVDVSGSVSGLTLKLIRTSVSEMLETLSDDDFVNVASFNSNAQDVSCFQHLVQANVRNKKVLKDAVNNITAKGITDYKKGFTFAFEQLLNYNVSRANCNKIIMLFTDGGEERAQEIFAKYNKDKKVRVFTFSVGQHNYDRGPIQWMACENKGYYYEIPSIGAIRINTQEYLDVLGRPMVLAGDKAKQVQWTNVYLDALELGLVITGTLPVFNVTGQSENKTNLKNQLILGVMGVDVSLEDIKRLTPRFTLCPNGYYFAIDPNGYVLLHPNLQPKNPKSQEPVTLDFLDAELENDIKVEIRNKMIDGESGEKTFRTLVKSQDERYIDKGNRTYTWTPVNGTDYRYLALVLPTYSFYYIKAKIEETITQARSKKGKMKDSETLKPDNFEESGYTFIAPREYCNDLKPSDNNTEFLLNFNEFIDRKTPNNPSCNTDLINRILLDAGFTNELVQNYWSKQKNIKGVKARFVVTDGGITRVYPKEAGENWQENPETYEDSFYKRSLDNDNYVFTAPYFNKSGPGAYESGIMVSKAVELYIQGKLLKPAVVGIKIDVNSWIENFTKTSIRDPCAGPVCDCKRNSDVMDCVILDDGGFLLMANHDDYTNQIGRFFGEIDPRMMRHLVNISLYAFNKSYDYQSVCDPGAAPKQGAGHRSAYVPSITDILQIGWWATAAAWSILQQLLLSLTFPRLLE
Sequence (P54290 945-1091 partner limits assumed, other chains not shown): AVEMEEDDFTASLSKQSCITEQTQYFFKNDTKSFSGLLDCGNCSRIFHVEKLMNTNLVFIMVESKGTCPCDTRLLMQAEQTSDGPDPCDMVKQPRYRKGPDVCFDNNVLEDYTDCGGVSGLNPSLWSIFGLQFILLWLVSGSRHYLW
Test: [^3 H]-Nitrendipine binding assay (affinity for calcium channels)
Settings: rat cardiac microsomes, 0.5 nM [^3 H]-nitrendipine, 60 minutes at 25°
Recall that a logarithmic scale is used here: each number is log10 of IC50 in nM.

Reference set, count: 6
INSERT INTO results (compound, observed_property, endpoint_result) VALUES
  ('COC(=O)C1=C(C)NC(C)=C([N+](=O)[O-])C1c1cccc(OCC=CCN2CCN(c3ccccc3OC)CC2)c1 (stereo not shown) [Example 125]', 'log10 IC50', 3.15),
  ('COC(=O)C1=C(C)NC(C)=C([N+](=O)[O-])C1c1ccccc1OCCCCN1CCN(c2ncccn2)CC1 (stereo not shown) [Example 60]', 'log10 IC50', 3.00),
  ('COC(=O)C1=C(C)NC(C)=C([N+](=O)[O-])C1c1cccc(OCCCN2CCN(c3ccccc3OC)CC2)c1[N+](=O)[O-] (stereo not shown) [Example 149]', 'log10 IC50', 3.95),
  ('COC(=O)C1=C(C)NC(C)=C([N+](=O)[O-])C1c1cccc(OCCCCCCN2CCN(c3ccccc3OC)CC2)c1 (stereo not shown) [Example 130]', 'log10 IC50', 2.58),
  ('COC(=O)C1=C(C)NC(C)=C([N+](=O)[O-])C1c1cccc(OCCCN2CCN(c3ncccn3)CC2)c1 (stereo not shown) [Example 124]', 'log10 IC50', 4.26),
  ('COC(=O)C1=C(C)NC(C)=C([N+](=O)[O-])C1c1cccc(OCCCCN2CCN(c3ccccc3OC)CC2)c1[N+](=O)[O-] (stereo not shown) [Example 150]', 'log10 IC50', 3.60);

Please turn your attention to the following entry.
Lookup result for COC(=O)C1=C(C)NC(C)=C([N+](=O)[O-])C1c1ccccc1OCCCCCN1CCN(c2ncccn2)CC1 (stereo not shown) [Example 155] ; measured log10 IC50: 2.40

---

Target: Ca^2 + channels (Rattus norvegicus, UniProt P22002)
Construct: rat cardiac microsomes (source of Ca^2 + channels)
Test: [^3 H]-Nitrendipine binding assay (affinity for calcium channels)
Details: rat cardiac microsomes, 0.5 nM [^3 H]-nitrendipine, 60 minutes at 25°
observed-property: IC50 (nM)
Answer format: numeric, nM implied, no suffix.

Reference set, count: 3
INSERT INTO measurements (compound, endpoint_result) VALUES
  ('COC(=O)C1=C(C)NC(C)=C([N+](=O)[O-])C1c1cc(Cl)ccc1OCCCCCN1CCN(c2ccccc2OC)CC1 (centres unmarked) [Example 145]', 180),
  ('COC(=O)C1=C(C)NC(C)=C([N+](=O)[O-])C1c1cccc(OCCCN2CCN(c3ccccc3C)CC2)c1 (centres unmarked) [Example 131]', 3600),
  ('COC(=O)C1=C(C)NC(C)=C([N+](=O)[O-])C1c1ccccc1OCCN1CCN(c2ncccn2)CC1 (centres unmarked) [Example 154]', 1400);

Please turn your attention to the following entry.
Note to self: IC50 of COC(=O)C1=C(C)NC(C)=C([N+](=O)[O-])C1c1cc(Br)ccc1OCCCCN1CCN(c2ccccc2OC)CC1 (centres unmarked) [Example 142] with Ca^2 + channels (Rattus norvegicus, UniProt P22002) was 180

---

Test system: guinea pig left atria
Assay: Positive inotropic effect in guinea pig left atria
Conditions: left atria paced at 2Hz, 37°, cumulative addition to maximum 10^-4; read-out: EC50 (concentration that increases DT by 50% above the control DT)
Description: Guinea pigs are killed by cervical dislocation. The left atria are removed and mounted at 1 gm resting tension in tissue baths containing oxygenated Krebs bicarbonate solution which is kept at 37°. The left atria are electrically paced at 2Hz with square wave pulses of 1 msec duration. […] After a one hour equilibration period, control values for developed tension (DT, gm) are recorded. […] Percent change of the treatment value from the control value is calculated at each concentration of the test compound.
pEC50: −log10 of the molar value.
observed-property: pEC50

Reference set, count: 6
INSERT INTO results (molecule, observed_property, endpoint_result) VALUES
  ('COC(=O)C1=C(C)NC(C)=C([N+](=O)[O-])C1c1cccc(OCCN2CCN(c3ccccc3OC)CC2)c1 (stereo not shown)', 'pEC50', '< 4.00'),
  ('COC(=O)C1=C(C)NC(C)=C([N+](=O)[O-])C1c1cccc(OCCCCCCN2CCN(c3ccccc3OC)CC2)c1 (stereo not shown)', 'pEC50', 5.52),
  ('COC(=O)C1=C(C)NC(C)=C([N+](=O)[O-])C1c1cccc(OC)c1OCCCN1CCN(c2ccccc2OC)CC1 (stereo not shown)', 'pEC50', '< 4.00'),
  ('COC(=O)C1=C(C)NC(C)=C([N+](=O)[O-])C1c1cccc(OC)c1OCCN1CCN(c2ccccc2OC)CC1 (stereo not shown)', 'pEC50', '< 4.00'),
  ('COC(=O)C1=C(C)NC(C)=C([N+](=O)[O-])C1c1ccccc1OCCCCCCCCCCN1CCN(c2ccccc2OC)CC1 (stereo not shown)', 'pEC50', '< 4.00'),
  ('COc1ccccc1N1CCN(CCCCOC(=O)C2=C(C)NC(C)=C([N+](=O)[O-])C2c2ccccc2C(F)(F)F)CC1 (stereo not shown)', 'pEC50', 5.22);

Lookup result for CCOc1cccc(C2C(C(=O)OC)=C(C)NC(C)=C2[N+](=O)[O-])c1OCCCCCN1CCN(c2ccccc2OC)CC1 (stereo not shown) ; measured pEC50: < 4.00

Lookup result for COC(=O)C1=C(C)NC(C)=C([N+](=O)[O-])C1c1cccc(OCCCN2CCN(c3ccccc3OC)CC2)c1 (stereo not shown) ; measured pEC50: 4.70

Lookup result for COC(=O)C1=C(C)NC(C)=C([N+](=O)[O-])C1c1ccccc1OCCCN1CCN(c2ccccc2OC)CC1 (stereo not shown) ; measured pEC50: 5.70

---

Measured IC50 values are reported for all entries that follow.
Biological target: alpha1 -adrenoceptors
Assay: [^3 H]-prazosin binding assay (affinity for alpha1-adrenoceptors)
Conditions: rat brain membranes, 0.2 nM [^3 H]-prazosin, 60 minutes at 25°
Answer format: numeric, nM implied, no suffix.

INSERT INTO assay_data (compound, observed_property, endpoint_result) VALUES
  ('COC(=O)C1=C(C)NC(C)=C([N+](=O)[O-])C1c1cc(OC)ccc1OCCCCN1CCN(c2ccccc2OC)CC1 (stereo not shown) [Example 152]', 'IC50', 270);

Lookup result for COC(=O)C1=C(C)NC(C)=C([N+](=O)[O-])C1c1cccc(OCCCN2CCN(c3ccccc3OC)CC2)c1[N+](=O)[O-] (stereo not shown) [Example 149] ; measured IC50: 290

Lookup result for COC(=O)C1=C(C)NC(C)=C([N+](=O)[O-])C1c1cccc([N+](=O)[O-])c1OCCCCCN1CCN(c2ccccc2OC)CC1 (stereo not shown) [Example 140] ; measured IC50: 180

---

Measured IC50 values are reported for all entries that follow.
Target: alpha1 -adrenoceptors
Assay: [^3 H]-prazosin binding assay (affinity for alpha1-adrenoceptors)
Details: rat brain membranes, 0.2 nM [^3 H]-prazosin, 60 minutes at 25°
Answer format: numeric, nM implied, no suffix.

Reference set, count: 2
INSERT INTO measurements (compound, observed_property, endpoint_result) VALUES
  ('COC(=O)C1=C(C)NC(C)=C([N+](=O)[O-])C1c1cccc(OC)c1OCCCCN1CCN(c2ccccc2OC)CC1 (stereo not shown)', 'IC50', 160),
  ('COc1ccccc1N1CCN(CCOC(=O)C2=C(C)NC(C)=C([N+](=O)[O-])C2c2ccccc2C(F)(F)F)CC1 (stereo not shown)', 'IC50', 800);

Please turn your attention to the following entry.
Lookup result for COC(=O)C1=C(C)NC(C)=C([N+](=O)[O-])C1c1ccccc1OCCCCCN1CCN(c2ncccn2)CC1 (stereo not shown) ; measured IC50: 2600

---

Measured IC50 values are reported for all entries that follow.
Target: Ca^2 + channels (Rattus norvegicus)
Construct: rat cardiac microsomes (source of Ca^2 + channels); from tissue; host or cells: rat cardiac microsomes
Experiment: [^3 H]-Nitrendipine binding assay (affinity for calcium channels)
Conditions: rat cardiac microsomes, 0.5 nM [^3 H]-nitrendipine, 60 minutes at 25°
Answer format: numeric, µM implied, no suffix.

Reference set, count: 3
INSERT INTO measurements (molecule, value_units, endpoint_result) VALUES
  ('COC(=O)C1=C(C)NC(C)=C([N+](=O)[O-])C1c1cccc(OCC#CCN2CCN(c3ccccc3OC)CC2)c1 (stereo not shown)', 'µM', 2),
  ('CCOc1cccc(C2C(C(=O)OC)=C(C)NC(C)=C2[N+](=O)[O-])c1OCCCCN1CCN(c2ccccc2OC)CC1 (stereo not shown)', 'µM', 0.79),
  ('COC(=O)C1=C(C)NC(C)=C([N+](=O)[O-])C1c1ccccc1OCC=CCN1CCN(c2ccccc2OC)CC1 (stereo not shown)', 'µM', 0.8);

Please turn your attention to the following entry.
Lookup result for COC(=O)C1=C(C)NC(C)=C([N+](=O)[O-])C1c1ccc(OCCCN2CCN(c3ccccc3OC)CC2)cc1 (stereo not shown) ; measured IC50: 6.7
